# measured.target: Human immunodeficiency virus type 1 protease (Human immunodeficiency virus 1)
# method.description: Inhibitory concentration against human immunodeficiency virus -1 protease
test.readout: Ki (nM)
Give just the numeric value; nM need not be written.

The examples below pair each entry with its known result.
{"compound": "CC[C@H](C)[C@@H](NC(=O)[C@@H](NC(=O)CCCCCCCCCCCCCCC(=O)N[C@H](CC(=O)N[C@@H](Cc1ccccc1)C(=O)O)C(N)=O)[C@H](C)O)C(=O)N[C@@H](Cc1ccc(OCc2ccccc2)cc1)C(N)=O", "measured.target": "Human immunodeficiency virus type 1 protease (Human immunodeficiency virus 1)", "Ki (nM)": 414}
{"compound": "CCC(C)[C@H](NC(=O)CCCCCCCCCCCCCCC(=O)N[C@@H](CC(N)=O)C(=O)NC(C(=O)O)C1CCCCC1)C(=O)N[C@H](Cc1ccccc1)C(N)=O (stereo not given in full)", "measured.target": "Human immunodeficiency virus type 1 protease (Human immunodeficiency virus 1)", "Ki (nM)": 254}
{"compound": "CC[C@H](C)[C@@H](NC(=O)[C@H]([C@H](C)O)N(C)C(=O)CCCCCCCCCCCCCCC(=O)N[C@H](Cc1ccc(C#N)cc1)C(=O)N[C@@H](Cc1ccccc1)C(=O)O)C(=O)NC(CO)C(N)=O (stereo not given in full)", "measured.target": "Human immunodeficiency virus type 1 protease (Human immunodeficiency virus 1)", "Ki (nM)": 140}
{"compound": "CCC(C)[C@@H](NC(=O)[C@@H](NC(=O)CCCCCCCCCCCCCCC(=O)N[C@@H](Cc1ccc(O)c([N+](=O)[O-])c1)C(=O)N[C@@H](Cc1ccccc1)C(=O)O)C(C)O)C(=O)NC(CO)C(N)=O (stereo not given in full)", "measured.target": "Human immunodeficiency virus type 1 protease (Human immunodeficiency virus 1)", "Ki (nM)": 102}

Output measured Ki for this item: CCC(C)[C@@H](NC(=O)[C@@H](NC(=O)CCCCCCCCCCCCCCC(=O)N[C@H](CC(=O)N[C@@H](Cc1ccccc1)C(=O)O)C(N)=O)C(C)O)C(=O)N[C@@H](Cc1ccccc1)C(N)=O (stereo not given in full)
210000

###

Listed below: inhibition values for each entry.
# measured.target: Human immunodeficiency virus type 1 protease (Human immunodeficiency virus 1) (UniProt Q72874)
# method.description: Percent inhibition of human immunodeficiency virus-1 protease after 1 uM treatment
Report the value in % with no unit label.

Recorded inhibition, per entry:
{"molecule": "CCCC(NC(=O)CCCCCCCCCCCCCCC(=O)N[C@H](CC(=O)N[C@@H](Cc1ccccc1)C(=O)O)C(N)=O)C(=O)N[C@@H](C(=O)N[C@@H](Cc1ccccc1)C(N)=O)[C@@H](C)CC (stereo partly drawn)", "result": 14}
{"molecule": "CCC(C)[C@@H](NC(=O)[C@@H](NC(=O)CCCCCCCCCCCCCCC(=O)N[C@H](CC(=O)N[C@@H](Cc1ccccc1)C(=O)O)C(N)=O)C(C)O)C(=O)NC(CO)C(N)=O (stereo partly drawn)", "result": 8}

For the molecule CC[C@H](C)[C@@H](NC(=O)C(CC1CCCC1)NC(=O)CCCCCCCCCCCCCCC(=O)N[C@H](CC(=O)N[C@@H](Cc1ccccc1)C(=O)O)C(N)=O)C(=O)N[C@@H](Cc1ccccc1)C(N)=O (stereo partly drawn) , report inhibition.
13
